Values from ChEMBL document CHEMBL5058564

System: Fibroblast
procedure.details: Incucyte cell viability with human fibroblast; further: unitless GR value; below 1 slowed growth and below 0 cell loss
Format: toxicity, cell-based
assay.setup: 12 h, 10 µM, compound concentration 10 uM, replicate number 1, timepoint 12 hours
Classes are defined on Growth Rate with ranges bin 0 = under -0.05, bin 1 = from -0.05 up to 0.6, bin 2 = 0.6 and over

{"columns": ["molecule", "qualitative.label"],
 "data": [
  ["CC(C)c1c(NC(=O)Nc2ccc(Cl)cc2)c(=O)n(-c2ccccc2)n1C", "bin 1"],
  ["COc1cc2nc(N3CCN(C(=O)c4ccco4)CC3)nc(N)c2cc1OC.Cl [PRAZOSIN HYDROCHLORIDE]", "bin 1"],
  ["CCn1c(-c2nc3cc(C(=O)N4CCCC(N)C4)ccc3n2C)cc2ccccc21.Cl (centres undefined)", "bin 0"],
  ["CCCCCCCCCCCCC/C=C/[C@@H](O)[C@@H](N)COP(=O)([O-])OCC[N+](C)(C)C", "bin 0"],
  ["COC[C@@H](c1ccc(C(F)(F)F)cc1)N1CCN(C2(C)CCN(C(=O)c3c(C)ncnc3C)CC2)C[C@@H]1C.O=C(O)/C=C\\C(=O)O [VICRIVIROC MALEATE]", "bin 1"],
  ["COc1cc(OC)cc(C(=O)NNC(=O)Nc2cccc3ccccc23)c1", "bin 2"],
  ["CCCN1CCO[C@H]2c3cc(O)ccc3OC[C@@H]21.Cl", "bin 2"],
  ["CC(C)Cc1ccc([C@@H](C)C(=O)NS(C)(=O)=O)cc1", "bin 2"]
]}

* * *

Growth Rate values for the molecules below.
Test system: U2OS
procedure.details: Incucyte cell viability with U2OS; further: unitless GR value; below 1 slowed growth and below 0 cell loss
Format: toxicity, cell-based
assay.setup: human, 0 h, 10 µM, compound concentration 10 uM, replicate number 2, timepoint 0 hours
observed.property: Growth Rate

{"columns": ["molecule", "val"],
 "data": [
  ["CCc1nn2c(C)cc(C)nc2c1Cc1ccc(-c2nnc(C3CCNCC3)o2)cc1", 0.09],
  ["CN(C(=O)/C=C/c1ccoc1)[C@@H]1CC[C@@]2(O)[C@H]3Cc4ccc(O)c5c4[C@@]2(CCN3CC2CC2)[C@H]1O5", -0.09],
  ["CN(CCN1CCC(OC(=O)Nc2ccccc2-c2ccccc2)CC1)C(=O)c1ccc(CN2CCC(C(N)=O)CC2)cc1", 0.11],
  ["COc1ccc(NC(=O)c2ccc(-c3ccc(-c4noc(C)n4)cc3C)cc2)cc1OCCN(C)C.Cl", -1],
  ["Cl.NCCc1c[nH]c2ccc(O)cc12 [SEROTONIN HYDROCHLORIDE]", 0.12],
  ["CCCN(CCC)[C@@H]1CCc2ccc3[nH]c(C#N)cc3c2C1.Cl", 0.9],
  ["O=C(O)COc1cccc(-c2ocnc2-c2nc(-c3ccccc3)c(-c3ccccc3)o2)c1", 0.7],
  ["CNCCN1CCC(c2cc(CN(C)C(=O)c3cccc(Oc4ccccc4)c3)ccn2)CC1", 0.56]
]}

* * *

Growth Rate values for the compounds below.
System: HEK-293T
procedure.details: Incucyte cell viability with HEK293T; further: unitless GR value; below 1 slowed growth and below 0 cell loss
Assay type: toxicity, cell-based
assay.setup: human, 18 h, 10 µM, compound concentration 10 uM, replicate number 2, timepoint 18 hours

{"columns": ["compound", "Growth Rate"],
 "data": [
  ["CN[C@@H]1CCc2[nH]c3ccc(C(N)=O)cc3c2C1.O.O=C(O)CCC(=O)O [FROVATRIPTAN SUCCINATE]", 0.94],
  ["Cc1cc(C)cc(C(=O)NOCCCCCC(=O)NO)c1", 0.37],
  ["NC[C@H](O)c1ccc(O)c(O)c1.O.O=C(O)C(O)C(O)C(=O)O", 0.8],
  ["Cn1cnc(-c2cc3nccc(Oc4ccc(NC(=S)NC(=O)Cc5ccccc5)cc4F)c3s2)c1", 0.64],
  ["COc1cc(Nc2ncc3c(n2)-c2ccc(Cl)cc2C(c2c(F)cccc2OC)=NC3)ccc1C(=O)O [ALISERTIB]", 0.33],
  ["CN[C@@H]1C[C@H]2O[C@@](C)([C@@H]1OC)n1c3ccccc3c3c4c(c5c6ccccc6n2c5c31)C(=O)NC4 [STAUROSPORINE]", 0.42],
  ["O=C(O)C(F)(F)F.O=C1NC(=O)/C(=C/c2c[nH]c(=O)c(-c3ccc(N4CCNCC4)nc3)c2)S1", 0.92],
  ["O=C(O)CCCCCC[C@H]1C(=O)NC(=O)N1CCC(O)C1CCCCC1 (some centres undefined)", 0.81],
  ["O=C(O)c1n[nH]c2c1C[C@H]1C[C@@H]21", 0.58]
]}
